Assay Procedure: RP, Waters ACQUITY UPLC HSS T3, 150 × 2.1 mm, 1.8 µm, 45 °C, 0.6 mL/min, estimated dead time 0.55 min; A: water + 0.1% formic acid, pH 3; B: acetonitrile + 0.1% formic acid, pH 3; gradient (min/%B) 0/1 0.1/1 10/55 10.15/65 10.30/75 10.45/85 10.60/95 10.70/100 11/100 11.55/100 11.65/1 11.70/1 11.80/1 11.90/1 12/1 12.10/1 12.15/1 12.65/1
Conditions Used: stereoisomer not certain
Value Type: LC retention time

CCC(C)C(NC(C)=O)C(=O)O (stereo unspecified) [N-Acetylisoleucine] | 4.03 min
O=C(O)C(O)Cc1ccccc1 (stereo unspecified) [Phenyllactic acid] | 4.51 min
CC(CCC(=O)NCC(=O)O)C1CCC2C3CCC4CC(OS(=O)(=O)O)CCC4(C)C3CC(O)C12C (stereo unspecified) [Glycodeoxycholic acid-3-sulfate] | 8.94 min
CC(CCC(=O)O)C(=O)O (stereo unspecified) [2-Methylglutaric acid] | 2.8 min
O=C(O)c1ccccc1O [Salicylic acid] | 5.48 min

Next:
Ask: Can you share its LC retention time? I mean this compound: CC(=O)NCCC(=O)NC(Cc1cnc[nH]1)C(=O)O [N-Acetyl-L-carnosine]
Reply: 0.92 min

----------
Assay Procedure: RP, Waters ACQUITY UPLC HSS T3, 150 × 2.1 mm, 1.8 µm, 45 °C, 0.6 mL/min, estimated dead time 0.55 min; A: water + 0.1% formic acid, pH 3; B: acetonitrile + 0.1% formic acid, pH 3; gradient (min/%B) 0/1 0.1/1 10/55 10.15/65 10.30/75 10.45/85 10.60/95 10.70/100 11/100 11.55/100 11.65/1 11.70/1 11.80/1 11.90/1 12/1 12.10/1 12.15/1 12.65/1
Conditions Used: stereoisomer not certain
So basically: LC retention time at 2 min or higher? That is met. Lower than 2 min? That is not met.

Worked set:
CC(C)(CO)C(O)C(=O)NCCC(=O)O (centres undefined) [Pantothenic acid] | met
O=C(O)Cc1ccc(O)cc1 [4-Hydroxyphenylacetic acid] | met
O=C1O[C@H]([C@@H](O)CO)C(O)=C1OS(=O)(=O)O [L-Ascorbic acid 2-sulfate] | not met

Ask: Answer whether LC retention time of Nc1nc2c(ncn2C2OC(CO)C(O)C2O)c(=O)[nH]1 (centres undefined) [Guanosine] is greater than or equal to 2 min.
Reply: not met

Ask: Answer whether LC retention time of O=C(O)CC(Nc1ncnc2c1ncn2C1OC(CO)C(O)C1O)C(=O)O (centres undefined) [Succinyladenosine] is greater than or equal to 2 min.
Reply: met

Ask: Answer whether LC retention time of CC(O)(CC(=O)O)CC(=O)O [3-Hydroxy-3-methylglutaric acid] is greater than or equal to 2 min.
Reply: not met

Ask: Answer whether LC retention time of O=c1[nH]cnc2nc[nH]c12 [Hypoxanthine] is greater than or equal to 2 min.
Reply: not met

Ask: Answer whether LC retention time of O=C1CCC(C(=O)O)N1 (centres undefined) [Pyroglutamic acid] is greater than or equal to 2 min.
Reply: not met

----------
Assay Procedure: RP, Waters ACQUITY UPLC HSS T3, 150 × 2.1 mm, 1.8 µm, 45 °C, 0.6 mL/min, estimated dead time 0.55 min; A: water + 0.1% formic acid, pH 3; B: acetonitrile + 0.1% formic acid, pH 3; gradient (min/%B) 0/1 0.1/1 10/55 10.15/65 10.30/75 10.45/85 10.60/95 10.70/100 11/100 11.55/100 11.65/1 11.70/1 11.80/1 11.90/1 12/1 12.10/1 12.15/1 12.65/1
Conditions Used: stereoisomer not certain
Where a name gives a salt, the structure may show the parent alone.
Recorded log10 LC retention time for the following compounds
Reminder: these figures are log10 of reported LC retention time, in min before transformation.

// solved cases for log10 LC retention time follow
Cn1c(=O)[nH]c2[nH]c(=O)n(C)c2c1=O | 0.41
CCCc1oc(CCC(=O)O)c(C(=O)O)c1C | 0.91
Cc1ccc(C(C)C)c(OS(=O)(=O)O)c1 [Thymol Sulfate] | 0.87
O=C(O)CC(O)C(=O)O (stereo unspecified) | -0.12
CC(C)C(O)C(=O)O (stereo unspecified) [2-Hydroxy-3-methylbutyric acid] | 0.44

Next:
Ask: Can you share its log10 LC retention time? I mean this compound: O=S(=O)(O)Oc1ccccc1 [Phenol sulfate]
Reply: 0.48
